Biological target: T1, human TROP2-his protein (human, UniProt P09758 27-274)
T1 construct: Biotin-labelled in the ELISAs, unlabelled analyte in Biacore; also called biotin-labeled human TROP2-his protein; biotin human Trop2-his
T1 sequence: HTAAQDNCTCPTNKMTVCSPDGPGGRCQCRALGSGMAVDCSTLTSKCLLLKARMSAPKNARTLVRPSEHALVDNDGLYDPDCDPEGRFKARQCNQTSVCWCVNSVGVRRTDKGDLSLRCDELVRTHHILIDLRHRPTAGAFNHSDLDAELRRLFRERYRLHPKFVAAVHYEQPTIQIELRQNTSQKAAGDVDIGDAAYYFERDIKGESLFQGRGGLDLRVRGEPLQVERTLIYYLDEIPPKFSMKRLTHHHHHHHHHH
Assay: SPR Biacore T200, supernatant antibody captured on anti-human IgG CM5 chip, 40 nM human TROP2-his
Binarize Kd at 0.2 nM; below is rule met, at or above is rule not met.

| binder | label value |
| --- | --- |
| huA1E4F7D4-V17 (antibody, human IgG1, kappa, V domains shown, Positions of the X residues are given in the claims; Tested as cell supernatant) VH: QVQLVQSGAEVKKPGASVKVSCKASGYSFTTHWIHWVRQAPGQGLEWIGTIFPSNAYAVYNQKFRDRATMTADRSISTAYIELSRLRSDDTAVYYCARASYFDYWGQGTTVTVSS VL: EIVLTQSPATLSLSPGERATLSCRASQNIGTSIHWFQQKPGGSPRLLIYYASESISGIPSRFSGSGSGTDFTLTISSLEPEDFAVYYCQHSHSWPFTFGQGTKLEIKR | rule not met |
| huA1E4F7D4-V20 (antibody, human IgG1, kappa, V domains shown, Positions of the X residues are given in the claims; Tested as cell supernatant) VH: QVQLVQSGAEVKKPGASVKVSCKASGYSFTTHWIHWVRQAPGQGLEWIGTIFPSNAYAVYNQKFRDRATMTRDRSISTAYIELSRLRSDDTAVYYCARASYFDYWGQGTTVTVSS VL: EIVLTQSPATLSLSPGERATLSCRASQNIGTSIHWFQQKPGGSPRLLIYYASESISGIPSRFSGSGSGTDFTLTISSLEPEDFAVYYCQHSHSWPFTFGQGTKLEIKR | rule not met |
| huA1E4F7D4-V13 (antibody, human IgG1, kappa, V domains shown, Positions of the X residues are given in the claims; Tested as cell supernatant) VH: QVQLVQSGAEVKKPGASVKVSCKASGYTFTTHWIHWVRQAPGQGLEWIGTIFPSNAYAVYNQKFRDRATMTADRSISTAYIELSRLRSDDTAVYYCARASYFDYWGQGTTVTVSS VL: EIVLTQSPATLSLSPGERATLSCRASQNIGTSIHWFQQKPGGAPRLLIKYASESISGIPSRFSGSGSGTDFTLTISSLEPEDFAVYYCQHSHSWPFTFGQGTKLEIKR | rule not met |
| huA1E4F7D4-V8 (antibody, human IgG1, kappa, V domains shown, Positions of the X residues are given in the claims; Tested as cell supernatant) VH: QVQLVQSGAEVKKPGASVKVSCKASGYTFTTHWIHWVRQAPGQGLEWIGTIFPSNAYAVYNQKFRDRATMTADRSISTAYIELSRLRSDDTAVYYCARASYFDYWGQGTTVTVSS VL: EIVLTQSPATLSLSPGERATLSCRASQNIGTSIHWFQQKPGQSPRLLIKYASESISGIPSRFSGSGSGTDFTLTISSLEPEDFAVYYCQHSHSWPFTFGQGTKLEIKR | rule not met |
| huA1E4F7D4-V16 (antibody, human IgG1, kappa, V domains shown, Positions of the X residues are given in the claims; also called humanized antibody huA1E4F7D4-V16) VH: QVQLVQSGAEVKKPGASVKVSCKASGYSFTTHWIHWVRQAPGQGLEWIGTIFPSNAYAVYNQKFRDRATMTADTSISTAYIELSRLRSDDTAVYYCARASYFDYWGQGTTVTVSS VL: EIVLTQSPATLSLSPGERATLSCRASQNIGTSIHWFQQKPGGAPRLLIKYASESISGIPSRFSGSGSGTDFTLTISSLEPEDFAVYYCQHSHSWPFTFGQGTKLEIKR | rule met |
| huA1E4F7D4-V1 (antibody, human IgG1, kappa, V domains shown, Positions of the X residues are printed in CLM-00003 and CLM-00005; Tested as cell supernatant) VH: QVQLVQSGAEVKKPGASVKVSCKASGYSFTTHWIHWMKQRPGQGLEWIGTIFPSNAYAVYNQKFRDRAIMTADRSISTAYIELTRLRSDDTAVYYCARASYFDYWGQGTTVTVSS VL: DILLTQSPATLSLSPGERATLSCRASQNIGTSIHWFQQKPGGSPRLLIKYASESISGIPSRFSGSGSGTDFTLTISSVEPEDFAVYYCQHSHSWPFTFGQGTKLEIKR | rule not met |
| huA1E4F7D4-V7 (antibody, human IgG1, kappa, V domains shown, Positions of the X residues are given in the claims; Tested as cell supernatant) VH: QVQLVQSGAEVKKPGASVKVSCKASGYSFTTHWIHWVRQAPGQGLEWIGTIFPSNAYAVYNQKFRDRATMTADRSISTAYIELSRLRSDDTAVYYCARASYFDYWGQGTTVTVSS VL: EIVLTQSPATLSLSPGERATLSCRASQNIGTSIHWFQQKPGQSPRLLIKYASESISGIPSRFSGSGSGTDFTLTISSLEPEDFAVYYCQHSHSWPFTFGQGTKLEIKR | rule not met |
| huA1E4F7D4-V11 (antibody, human IgG1, kappa, V domains shown, Positions of the X residues are given in the claims; Tested as cell supernatant) VH: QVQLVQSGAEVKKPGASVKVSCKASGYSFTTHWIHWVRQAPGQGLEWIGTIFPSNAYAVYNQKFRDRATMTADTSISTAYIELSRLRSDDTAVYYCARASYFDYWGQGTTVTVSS VL: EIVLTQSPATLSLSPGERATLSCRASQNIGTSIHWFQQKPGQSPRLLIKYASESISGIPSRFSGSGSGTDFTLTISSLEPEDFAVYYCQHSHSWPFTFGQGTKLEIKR | rule met |
| huA1E4F7D4-V4 (antibody, human IgG1, kappa, V domains shown, Positions of the X residues are given in the claims; Tested as cell supernatant) VH: QVQLVQSGAEVKKPGASVKVSCKASGYSFTTHWIHWVRQAPGQGLEWIGTIFPSNAYAVYNQKFRDRVTMTADRSISTAYIELSRLRSDDTAVYYCARASYFDYWGQGTTVTVSS VL: EIVLTQSPATLSLSPGERATLSCRASQNIGTSIHWFQQKPGGSPRLLIKYASESISGIPSRFSGSGSGTDFTLTISSLEPEDFAVYYCQHSHSWPFTFGQGTKLEIKR | rule not met |
| huA1E4F7D4-V9 (antibody, human IgG1, kappa, V domains shown, Positions of the X residues are given in the claims; Tested as cell supernatant) VH: QVQLVQSGAEVKKPGASVKVSCKASGYSFTTHWIHWVRQAPGQGLEWIGTIFPSNAYAVYNQKFRDRVTMTADRSISTAYIELSRLRSDDTAVYYCARASYFDYWGQGTTVTVSS VL: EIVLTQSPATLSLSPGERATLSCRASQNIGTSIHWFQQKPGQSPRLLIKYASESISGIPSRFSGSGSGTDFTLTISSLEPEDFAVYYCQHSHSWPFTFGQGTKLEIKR | rule not met |

Data origin: patent US20240207432A1
